- System: inflammation induced by tetradecanoyl phorbol acetate (TPA)
- protocol_text: TPA inflammation inhibition test (mouse ear edema)
- Format: in vivo, mice
- Set-up: dose or concentration left out as unconfirmed
- test_conditions: topical, 4 h, TPA to right ear, edema measured four hours later, read-out: % Inhibition of Control Swelling
Structures can show the parent of a compound that is named as a salt.
Entries and their inhibition in vivo
attribute_measured: inhibition in vivo

* CC(NCCC(N)c1ccc(Cl)cc1)C12CC3CC(CC(C3)C1)C2 (stereo not shown) [Example 36, Dihydrochloride] | 48%
* CCCCCCCCCCCNCCC(N)c1ccc(F)cc1 (stereo not shown) [Example 27, Dihydrochloride] | 51%
* CCCCCCCCCCCCCCCCCCNCCC(N)c1ccc(F)cc1 (stereo not shown) [Example 42, Dihydrochloride] | 22%
* Cc1ccc(SCCCC(N)c2ccc(F)cc2)cc1 (stereo not shown) [Example 7, Hydrochloride] | 22%
* CC(C)c1ccc2c(c1)CCC1C(C)(CNCCCC(N)c3ccc(F)cc3)CCCC21C (stereo not shown) [Example 8, Dihydrochloride] | 50%
* CCCCCCC(C)OCCCC(N)c1ccc(F)cc1 (stereo not shown) | 25%
* CC(C)(C)CC(C)(C)NCCC(N)c1ccc(F)cc1 (stereo not shown) | 22%
* CCCCCCCCSCCCC(N)c1ccc(F)cc1 (stereo not shown) [Example 5, Hydrochloride] | 46%
* CCCCCCCNCCC(N)c1ccc(F)cc1 (stereo not shown) [Example 26, Dihydrochloride] | 52%
* CC1(C)C2CCC(CNCCC(N)c3ccc(F)cc3)C1C2 (stereo not shown) [Example 30, Dihydrochloride] | 34%
* NC(CCCSc1ccncc1)c1ccc(F)cc1 (stereo not shown) [Example 10, Dihydrochloride] | 24%
* COc1ccc(C(N)CCNCC2(C)CCCC3(C)c4ccc(C(C)C)cc4CCC23)cc1 (stereo not shown) [Example 57, Dihydrochloride] | 60%
* NC(CCNCCc1cccc2ccccc12)c1ccc(F)cc1 (stereo not shown) [Example 40, Dihydrochloride] | 29%
* CC(NCCC(N)c1ccc(F)cc1)C12CC3CC(CC(C3)C1)C2 (stereo not shown) [Example 39, Dihydrochloride] | 50%
* CC1(C)C2CCC(CNCCC(N)c3ccc(F)cc3)C1C2 (single isomer, unassigned) [Example 11, Dihydrochloride] | 45%
* CCCCCCNCCC(N)c1ccc(F)cc1 (stereo not shown) [Example 28, Dihydrochloride] | 51%
* NC(CCCSc1ccccc1)c1ccc(F)cc1 (stereo not shown) [Example 38, Hydrochloride] | 30%
* CCCCCCCCNCCC(N)c1ccc(F)cc1 (stereo not shown) [Example 21, Dihydrochloride] | 68%
* COc1ccc(CNCCC(N)c2ccc(F)cc2)c2ccccc12 (stereo not shown) [Example 22, Dihydrochloride] | 26%
* CC(C)c1ccc2c(c1)CCC1C(C)(CNCCC(N)c3ccccc3)CCCC21C (stereo not shown) [Example 56, Dihydrochloride] | 64%
* CC(C)c1ccc2c(c1)CCC1C(C)(CNCCC(N)c3ccc(F)cc3)CCCC21C (stereo not shown) [Example 1, Dihydrochloride] | 89%
* NC(CCCSc1ccc(F)cc1)c1ccc(F)cc1 (stereo not shown) [Example 44, Hydrochloride] | 25%
